Kindly supply the reported pest or weed control at 25 ppm values for the records listed here.
test system: Mycosphaerella graminicola; Anamorph: Septoria tritici; Bayer Code SEPTTR; assay: Leaf blotch of wheat, foliar fungicide treatment, one day protectant (1DP) or three day curative (3DC); assay type: in vivo, Septoria tritici on wheat plants (variety Yuma); conditions: Zymoseptoria tritici, 24 h, one day protectant (1DP), 25 ppm, rating of percent disease control, read-out: SETTTR 1DP 25 ppm

[
  {
    "compound": "Nc1nc(OCc2ccc(F)cc2C(F)(F)F)ncc1F [Compound 271]",
    "pest or weed control at 25 ppm": "76 to 100%"
  },
  {
    "compound": "Nc1nc(OCc2cc3ccccc3s2)ncc1F [Compound 345]",
    "pest or weed control at 25 ppm": "76 to 100%"
  },
  {
    "compound": "Nc1nc(OCCc2ccc(Cl)cc2)ncc1F [Compound 455]",
    "pest or weed control at 25 ppm": "51 to 75%"
  }
]

Please look at the items below and tell me pest or weed control at 25 ppm for each one, in order.
1. COc1ccccc1COc1ncc(F)c(/N=C/N2CCOCC2)n1 [Compound 541]
2. CCN(N)c1nc(OCc2cccc(OC)c2)ncc1F [Compound 340]
3. COc1cccc(COc2ncc(F)c(N(N)c3ccccc3)n2)c1 [Compound 367]
4. Cc1cc(C)c(COc2ncc(F)c(N)n2)c(C)c1 [Compound 510]
5. CNc1nc(OCc2cccs2)ncc1F [Compound 237]
6. COc1ccc(OC)c(COc2ncc(F)c(N)n2)c1 [Compound 351]
7. O=C(Nc1ccccc1)Nc1nc(OCc2ccc(F)cc2)ncc1F [Compound 485]

-- reply
1. 76 to 100%
2. 0 to 25%
3. 0 to 25%
4. 51 to 75%
5. 0 to 25%
6. 76 to 100%
7. 0 to 25%
